# Test system: HOP-92
# Protocol Text: NCI tumour cell line growth inhibition, 48 h
Active and inactive are the calls of the source. Cut-off read from the data, not from the text of the source: active = GI50 up to about 1.1 µM and inactive = higher.
Reported Endpoint: GI50

# Compound, Observed Measurement
records = [
    ("O=C(Nc1ccc([N+](=O)[O-])cc1[N+](=O)[O-])C(=O)C(C(=O)c1ccc2ccccc2c1)C1OC(=O)c2ccccc21 (stereo not given)", "17.8 µM (inactive)"),
]

Let us move to another entry and its GI50.
Request: Look at this compound and give its reported GI50. CC(CC(=O)O)C(C(=O)O)C(=O)O (stereo not given)
Result: > 100 µM (inactive)

====

# Tested on: HT-29
# Protocol Text: NCI tumour cell line growth inhibition, 48 h
The source made the active and inactive calls. Rule as the data show it: active = GI50 up to about 1.1 µM and inactive = higher.
Reported Endpoint: GI50

# Compound, GI50
records = [
    ("COc1ccc(C(=O)O/N=C2/CCC/C2=C\\c2ccccc2)cc1", "> 100 µM (inactive)"),
    ("O=c1[nH]c2ccc(CC(=S)N3CCOCC3)cc2s1", "> 100 µM (inactive)"),
    ("O=C1C=CC2(O[C@@H](Cc3ccccc3)[C@H](Cc3ccccc3)O2)C(SC(=O)c2ccccc2)C1 (stereo not given in full)", "1.64 µM (inactive)"),
]

Request: Look at this compound and give its reported GI50. CC12Nc3ccccc3N1C(=O)c1ccccc12 (stereo not given)
Result: > 100 µM (inactive)

Request: Look at this compound and give its reported GI50. CC(C)C1CN(C(=O)OCc2ccccc2)C2N1C(=O)C2(C)OCc1ccccc1 (stereo not given)
Result: 42.2 µM (inactive)

Request: Look at this compound and give its reported GI50. CC(CC(=O)O)C(C(=O)O)C(=O)O (stereo not given)
Result: > 100 µM (inactive)

Request: Look at this compound and give its reported GI50. c1ccc(CN2CCC3(CC2)SSC2(CCN(Cc4ccccc4)CC2)SS3)cc1
Result: 27.2 µM (inactive)
